Items are presented alongside their recorded IC50.
System: ESR1 transcription in MVLN cells
Assay: MVLN reporter assay: repression of ESR1 transcription (luciferase signal)
Type: cell-based
Conditions: Homo sapiens, MVLN, 24 h, luciferase signal after 24 h, read-out: MVLN reporter assay, IC50 [M] (arithmetic mean)
Readout: IC50 (M)

> print(dat)
                                   compound                       measured.on  units.of.measure  value.prefix  result.number
1  COc1ccc2cccnc2c1S(=O)(=O)NC(=O)c1cc2c(F)cc(N3CCC3)cc2o1 [Example 8]  ESR1 transcription in MVLN cells                 M             =       1.25e-07
2  O=C(NS(=O)(=O)c1cnc2c(Cl)cc(Cl)cn12)c1cc2c(F)cc(N3CCC3)cc2o1 [Example 168]  ESR1 transcription in MVLN cells                 M             >          2e-05
3  O=C(NS(=O)(=O)c1cc(Br)ccc1OC(F)(F)F)c1cc2c(F)cc(N3CCC3)cc2o1 [Example 82]  ESR1 transcription in MVLN cells                 M             =       3.66e-07
4  CCOc1cccc(C)c1S(=O)(=O)NC(=O)c1cc2c(F)cc(N3CCC3)cc2o1 [Example 25]  ESR1 transcription in MVLN cells                 M             =       3.26e-07
5  CCCOc1ccccc1S(=O)(=O)NC(=O)c1cc2c(F)cc(N3CCC3)cc2o1 [Example 133]  ESR1 transcription in MVLN cells                 M             =       6.41e-08
6  O=C(NS(=O)(=O)c1c(F)cccc1OC1CCC1)c1cc2c(F)cc(N3CCC3)cc2o1 [Example 16]  ESR1 transcription in MVLN cells                 M             =       1.69e-07
7  CC(=O)c1ccc(Cl)c(S(=O)(=O)NC(=O)c2cc3c(F)cc(N4CCC4)cc3o2)c1 [Example 99]  ESR1 transcription in MVLN cells                 M             =        8.1e-07
8  Cc1nc(-c2ccc(S(=O)(=O)NC(=O)c3cc4c(F)cc(N5CC(F)C5)cc4o3)cc2)cs1 [Example 115]  ESR1 transcription in MVLN cells                 M             =       3.81e-06

====

Biological target: Recombinant human His-tagged Kat6a protein (amino acids 194-810) (Homo sapiens, UniProt Q92794)
Construct: Kat6a protein (amino acids 194-810); His
Sequence (Q92794 194-810): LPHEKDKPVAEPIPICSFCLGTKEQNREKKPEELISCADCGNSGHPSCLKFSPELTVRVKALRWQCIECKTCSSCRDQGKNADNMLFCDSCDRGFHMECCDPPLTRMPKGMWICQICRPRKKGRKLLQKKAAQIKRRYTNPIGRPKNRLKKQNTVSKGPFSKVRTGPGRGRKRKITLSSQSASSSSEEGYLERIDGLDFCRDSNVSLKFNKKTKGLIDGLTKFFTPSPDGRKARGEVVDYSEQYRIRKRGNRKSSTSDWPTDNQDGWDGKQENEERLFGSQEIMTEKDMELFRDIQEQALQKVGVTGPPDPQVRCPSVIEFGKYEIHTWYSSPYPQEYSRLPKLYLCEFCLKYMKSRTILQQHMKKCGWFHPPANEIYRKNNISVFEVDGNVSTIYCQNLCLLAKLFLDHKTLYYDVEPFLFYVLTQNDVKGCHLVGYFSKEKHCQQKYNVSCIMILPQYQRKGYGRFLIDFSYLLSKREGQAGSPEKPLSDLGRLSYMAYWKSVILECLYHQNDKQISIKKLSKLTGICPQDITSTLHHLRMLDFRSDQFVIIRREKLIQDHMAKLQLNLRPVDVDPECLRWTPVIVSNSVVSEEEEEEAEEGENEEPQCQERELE
Assay: Kat6a activity assay (TR-FRET, acetylation of Histone-H4-derived peptide)
Details: 60 mins at 22° C., 220 nM H4 peptide, 600 nM Acetyl Coenzyme A, read-out: KAT6A - DPF/HAT domain IC50 [mol/l] (arithmetic mean)
Classification field. Basis: IC50. Definitions: interval 1 (below 70 nM), interval 2 (70 nM to below 300 nM), interval 3 (300 nM or more)

> print(dat)
                                    compound  label.value
 1  Cn1nc2cccc(S(=O)(=O)NC(=O)c3cc4c(F)cc(N5CCC5)cc4o3)c2n1   interval 1
 2  CN(C)c1cccc2c(S(=O)(=O)NC(=O)c3cc4c(F)cc(N5CCC5)cc4o3)cccc12   interval 2
 3  COc1ccc(Cl)c(C)c1S(=O)(=O)NC(=O)c1cc2c(F)cc(N3CCC3)cc2o1   interval 1
 4  NS(=O)(=O)c1cc(COC(=O)c2cc3c(F)cc(N4CCC4)cc3o2)ccc1OC(F)(F)F   interval 3
 5  CCCOc1cccc(OCC)c1S(=O)(=O)NC(=O)c1cc2c(F)cc(N3CCC3)cc2o1   interval 1
 6  CCOc1ccccc1S(=O)(=O)NC(=O)c1cc2c(F)cc(N3CCC3CNC(=O)OC)cc2o1 (racemic)   interval 3
 7  O=C(NS(=O)(=O)c1c(F)cccc1C1CCC1)c1cc2c(F)cc(N3CCC3)cc2o1   interval 1
 8  Cc1cccc(C(C)C)c1S(=O)(=O)NC(=O)c1cc2c(F)cc(N3CCC3)cc2o1   interval 3
 9  CCCOc1cccc(CCC)c1S(=O)(=O)NC(=O)c1cc2c(F)cc(N3CCC3)cc2o1   interval 1
10  CCN(C)C(=O)c1ccccc1S(=O)(=O)NC(=O)c1cc2c(F)cc(N3CCC3)cc2o1   interval 2
11  CN(C)C(=O)c1cccnc1S(=O)(=O)NC(=O)c1cc2c(F)cc(N3CCC3)cc2o1   interval 3
12  Cc1ccc2cccc(S(=O)(=O)NC(=O)c3cc4c(F)cc(N5CCC5(C)C)cc4o3)c2n1   interval 2
13  CCOc1ccc(C(F)(F)F)cc1S(=O)(=O)NC(=O)c1cc2c(F)cc(N3CCC3)cc2o1   interval 1
14  CC1CCN1c1cc(F)c2cc(C(=O)NS(=O)(=O)c3ccccc3-c3ccccc3)oc2c1 (racemic)   interval 2
15  COc1ccc(Br)cc1S(=O)(=O)NC(=O)c1cc2c(F)cc(N3CCC3)cc2o1   interval 1
16  O=C(NS(=O)(=O)c1cccc2nccnc12)c1cc2c(F)cc(N3CCC3)cc2o1   interval 2
17  Cc1ccc(F)c(S(=O)(=O)NC(=O)c2cc3c(F)cc(N4CCC4)cc3o2)c1   interval 2
18  Cc1ccc2cccc(S(=O)(=O)NC(=O)c3cc4c(F)cc(N5CC(F)C5)cc4o3)c2n1   interval 1
19  CCOc1ccccc1S(=O)(=O)NC(=O)c1cc2c(F)cc(N3CC[C@@H]3C(N)=O)cc2o1 (racemic)   interval 3
20  CCc1cccc(OC)c1S(=O)(=O)NC(=O)c1cc2c(F)cc(N3CCC3)cc2o1   interval 1
21  O=C(NS(=O)(=O)c1cc(C(F)(F)F)ccc1NCC(F)F)c1cc2c(F)cc(N3CCC3)cc2o1   interval 3
22  Cc1ccc2c(S(=O)(=O)NC(=O)c3cc4c(F)cc(N5CCC5)cc4o3)nn(C)c2n1   interval 3
23  O=C(NS(=O)(=O)c1ccccc1C(=O)N1CCOCC1)c1cc2c(F)cc(N3CCC3)cc2o1   interval 2
24  O=C(NS(=O)(=O)c1ccccc1C(Cl)Cl)c1cc2c(F)cc(N3CC(F)C3)cc2o1   interval 3
25  CCc1noc(-c2ccccc2S(=O)(=O)NC(=O)c2cc3c(F)cc(N4CCC4)cc3o2)n1   interval 2
26  Cc1ccc2cccc(S(=O)(=O)NC(=O)c3cc4c(F)cc(N5CCC5C)cc4o3)c2n1 (racemic)   interval 1
27  CCc1ccc(OC2CCCC2)c(S(=O)(=O)NC(=O)c2cc3c(F)cc(N4CCC4)cc3o2)c1   interval 1
28  CCOc1ccccc1S(=O)(=O)NC(=O)c1cc2ccc(N3CC(C)(C)C3)cc2o1   interval 3
29  O=C(NS(=O)(=O)c1cccc2nsnc12)c1cc2c(F)cc(N3CCC3)cc2o1   interval 2
30  COc1c(S(=O)(=O)NC(=O)c2cc3c(F)cc(N4CCC4)cc3o2)ccc(Cl)c1Cl   interval 2
31  Cc1ncccc1S(=O)(=O)NC(=O)c1cc2c(F)cc(N3CCC3)cc2o1   interval 3
